# assay_summary: modulators of CD8 T cell-vesicle binding, confirmation, cherry-picked primary hits, two concentrations (AID 2810)
# assay_setup: 2C CD8+ T cell-vesicle binding, flow cytometry; at 15.4 µM
Hit rate of the full screen: of about 1,200 compounds, about 65 (5%) were called active.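 How the source made its calls: active means at either tested dose, response and 90th-percentile vesicle-stain brightness of CD8 cells under set limits and under 9% cells vesicle-bound; inactive means the rest.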 This excerpt belongs to a sample that is enriched for actives.
Classes used: active, inactive

CCC(C)c1ccc(NC(=O)NCc2cccnc2)cc1 (configuration not stated)	inactive
O=C1CC(c2nc3ccccc3[nH]2)CN1Cc1ccccc1 (configuration not stated)	active
COC(=O)c1ccc(OC(=O)CS(=O)c2ccccc2[N+](=O)[O-])cc1 (configuration not stated)	inactive
O=C(CSCCO)N1CCc2ccccc21	inactive
CCOCC(=O)Nc1ccc(S(=O)(=O)N2CCC(c3nc4ccccc4[nH]3)CC2)cc1	inactive
O=C(c1ccco1)N1CCN(c2ncccn2)CC1	inactive
COc1ccc(OC)c(C(c2nnnn2CCC(C)C)N2CCN(C(=O)c3ccco3)CC2)c1 (configuration not stated)	inactive

###

# assay_summary: modulators of CD8 T cell-vesicle binding, confirmation, cherry-picked primary hits, two concentrations (AID 2810);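 on percent response (vesicle binding): ratio of mean FL2 vesicle stain of CD8+ cells to that row's control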
# assay_setup: 2C CD8+ T cell-vesicle binding, flow cytometry; at 15.4 µM; stronger effect = lower value
Hit rate of the full screen: of about 1,200 compounds, about 65 (5%) were called active. The full list was thinned out, with actives kept by preference.
Response field label: string, one of t (percent response (vesicle binding) strictly below 200%) or f.

O=C(NCc1cccnc1)C(=O)NCC(c1ccco1)N1CCN(c2ccccc2)CC1 (centres undefined)	t
O=C(N/N=C/c1cccc(OC(=O)c2ccccc2Cl)c1)c1cccnc1	t
O=C(N/N=C/c1ccc(OCc2ccccc2)cc1)c1cccs1	f
Cn1nc(-c2ccccc2)c(CSc2ccccc2Cl)c1Cl	f
O=C(N/N=C/c1cccc(OCc2ccccc2)c1)c1ccc(Br)cc1	t
CCCOc1ccc(N2C(=O)CC(N(O)c3ccccc3)C2=O)cc1 (centres undefined)	t
CC(=O)Nc1ccc(S(=O)(=O)NC2CCSc3ccccc32)cc1 (centres undefined)	t
C=CCN1C(=O)c2ccc(C(=O)N3CCN(S(=O)(=O)c4cccc(Cl)c4)CC3)cc2C1=O	t
Cc1c(C(=O)N(C)Cc2ccccc2)oc2ccc(S(=O)(=O)N3CCCC3)cc12	t

###

As shown below, each of these molecules has a reported double positive events value.
# assay_summary: modulators of CD8 T cell-vesicle binding, confirmation, cherry-picked primary hits, two concentrations (AID 2810)
# assay_setup: 2C CD8+ T cell-vesicle binding, flow cytometry; CD8+/vesicle+ events; at 15.4 µM; stronger effect = lower value
The campaign covered roughly 1,200 compounds. About 65 (5%) were called active. The entries come from a sample that favours actives as a whole.
measurement_type: double positive events (%)

CC1(C)Cc2c(C#N)c(NC3CCCCC3)nc(-c3ccco3)c2CO1	2.8
COc1ccc(C(=O)NNC(=O)CSc2nnnn2C)cc1	1.8
CN(Cc1ccccc1)C(=O)c1ccc(NC(=O)Cc2cccc(NC(=O)C3CCCN(C(=O)C4CCC4)C3)c2)cc1 (stereo not drawn)	4.3

###

# assay_summary: modulators of CD8 T cell-vesicle binding, confirmation, cherry-picked primary hits, two concentrations (AID 2810);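 on percent response (vesicle binding): ratio of mean FL2 vesicle stain of CD8+ cells to that row's control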
# assay_setup: 2C CD8+ T cell-vesicle binding, flow cytometry; response; at 7.7 µM
The campaign covered roughly 1,200 compounds. About 65 (5%) were called active. The full list was thinned out, with actives kept by preference.
measurement_type: percent response (vesicle binding)

O=C(N/N=C/c1cccc(OC(=O)c2ccccc2Cl)c1)c1cccnc1	350%
O=C(N/N=C/c1ccc(OCc2ccccc2)cc1)c1cccs1	428%
COc1ccc(NC(=S)N2CCN(c3ncccn3)CC2)c(OC)c1	246%
O=C(N/N=C/c1cccc(OCc2ccccc2)c1)c1ccc(Br)cc1	128%
